- TESTED TARGET: α-glycosidase
- ASSAY DETAILS: α-Glycosidase inhibitory effect (p-nitrophenyl-α-D glucopyranoside substrate)
- TEST CONTEXT: enzyme 2 U/mL, phosphate buffer pH 6.8, 37 °C; nd: not detected
- Description: α-glycosidase inhibitory effect of the newly synthesized samples that were solvated in DMSO was performed with some minor modifications of the standard method. The activity degree of the enzyme solution was adjusted as 2 U/mL in phosphate buffer (pH 6.8, 50 mM). […] After the incubation for 15 min at 37 °C, 150 μL of p-nitrophenyl-α-D glucopyranoside (20 mM, Sigma-Aldrich) was added and then their absorbance was monitored for 20 min at 400 nm.
For each record, check the reported IC50: if it is below 10 mM write y, else write n.

Determine whether this compound shows IC50 lower than 10 mM (ties excluded): COc1ccccc1/C=C/C(=O)c1cc(OC2OC(CO)C(O)C(O)C2O)cc(OC2OC(CO)C(O)C(O)C2O)c1 (stereo not drawn) [17a]
n

Find out if reported IC50 for COc1cccc(/C=C/C(=O)c2cc(O)cc(O[C@@H]3O[C@H](CO)[C@@H](O)[C@H](O)[C@H]3O)c2)c1 [16b] is less than 10 mM
y

Please state whether IC50 is below 10 mM for COc1cccc(/C=C/C(=O)c2cc(OC3OC(CO)C(O)C(O)C3O)cc(OC3OC(CO)C(O)C(O)C3O)c2)c1 (stereo not drawn) [17b]
n

Please check: IC50 for COc1ccc(/C=C/C(=O)c2cc(OC3OC(CO)C(O)C(O)C3O)cc(OC3OC(CO)C(O)C(O)C3O)c2)cc1 (stereo not drawn) [17c] , strictly under 10 mM or not?
n

Confirm or reject: IC50 of COc1ccccc1/C=C/C(=O)c1cc(O)cc(O[C@@H]2O[C@H](CO)[C@@H](O)[C@H](O)[C@H]2O)c1 [16a] lies strictly below 10 mM
n

Consider COc1ccc(/C=C/C(=O)c2cc(O)cc(O[C@@H]3O[C@H](CO)[C@@H](O)[C@H](O)[C@H]3O)c2)cc1 [16c] . Does its IC50 lie strictly below 10 mM?
y

====

The following compounds each carry a recorded IC50 for AChE (Electrophorus electricus, UniProt O42275).

Give reported IC50 value for COc1cc(C(=O)/C=C/c2ccc(O[C@@H]3O[C@H](CO)[C@@H](O)[C@H](O)[C@H]3O)cc2)ccc1O[C@@H]1O[C@H](CO)[C@@H](O)[C@H](O)[C@H]1O
> 100 µM

Query IC50 for COc1cccc(/C=C/C(=O)c2cc(O)cc(O[C@@H]3O[C@H](CO)[C@@H](O)[C@H](O)[C@H]3O)c2)c1 [16b]
> 100 µM

Tell me measured IC50 for COc1cc(C(=O)/C=C/c2ccccc2O)ccc1O[C@@H]1O[C@H](CO)[C@@H](O)[C@H](O)[C@H]1O please.
> 100 µM

Let me know recorded IC50 for COc1cc(C(=O)/C=C/c2ccccc2O[C@@H]2O[C@H](CO)[C@@H](O)[C@H](O)[C@H]2O)ccc1O[C@@H]1O[C@H](CO)[C@@H](O)[C@H](O)[C@H]1O , thanks.
> 100 µM

State its IC50: COc1cccc(/C=C/C(=O)c2cc(OC3OC(CO)C(O)C(O)C3O)cc(OC3OC(CO)C(O)C(O)C3O)c2)c1 (stereo not drawn) [17b]
> 100 µM

Give me measured IC50, please, for this compound: COc1cc(C(=O)/C=C/c2cccc(OC3OC(CO)C(O)C(O)C3O)c2)ccc1OC1OC(CO)C(O)C(O)C1O (stereo not drawn)
81.8 µM

====

What pIC50 was measured for each of the following?
Please report pIC50 as the negative decimal logarithm of the molar concentration, giving only the number.

Enter pIC50 (test system tyrosinase (Agaricus bisporus, UniProt C7FF04)) for COc1cc(C(=O)/C=C/c2cccc(O)c2)ccc1O[C@@H]1O[C@H](CO)[C@@H](O)[C@H](O)[C@H]1O
4.08

Give pIC50; test system tyrosinase (Agaricus bisporus, UniProt C7FF04); compound COc1cc(C(=O)/C=C/c2ccc(O[C@@H]3O[C@H](CO)[C@@H](O)[C@H](O)[C@H]3O)cc2)ccc1O[C@@H]1O[C@H](CO)[C@@H](O)[C@H](O)[C@H]1O
4.27

====

pIC50: −log10 of the molar value.
ENDPOINT LABEL: pIC50

Under tyrosinase (Agaricus bisporus): report pIC50 of COc1ccc(/C=C/C(=O)c2cc(OC3OC(CO)C(O)C(O)C3O)cc(OC3OC(CO)C(O)C(O)C3O)c2)cc1 (stereo not shown) [17c] .
4.46

Identify measured pIC50 obtained with tyrosinase (Agaricus bisporus) for COc1ccccc1/C=C/C(=O)c1cc(O)cc(O[C@@H]2O[C@H](CO)[C@@H](O)[C@H](O)[C@H]2O)c1 [16a] .
Sequence (C7FF04 1-392 limits assumed): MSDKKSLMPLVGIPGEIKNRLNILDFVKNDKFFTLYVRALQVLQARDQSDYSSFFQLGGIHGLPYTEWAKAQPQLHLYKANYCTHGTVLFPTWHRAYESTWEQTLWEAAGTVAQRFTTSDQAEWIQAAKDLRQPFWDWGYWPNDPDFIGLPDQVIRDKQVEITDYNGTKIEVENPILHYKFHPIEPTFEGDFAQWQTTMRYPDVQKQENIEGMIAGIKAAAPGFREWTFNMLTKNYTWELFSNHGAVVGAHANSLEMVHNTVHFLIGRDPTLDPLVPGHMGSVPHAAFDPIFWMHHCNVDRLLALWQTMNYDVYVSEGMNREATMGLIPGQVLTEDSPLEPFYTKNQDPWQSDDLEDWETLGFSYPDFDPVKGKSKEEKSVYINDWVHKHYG
< 4.00

State measured pIC50 of the compound COc1cc(C(=O)/C=C/c2ccccc2O[C@@H]2O[C@H](CO)[C@@H](O)[C@H](O)[C@H]2O)ccc1O[C@@H]1O[C@H](CO)[C@@H](O)[C@H](O)[C@H]1O with tyrosinase (Agaricus bisporus).
< 4.00

Lab note: record pIC50 of COc1cccc(/C=C/C(=O)c2cc(O)cc(O[C@@H]3O[C@H](CO)[C@@H](O)[C@H](O)[C@H]3O)c2)c1 [16b] tested on tyrosinase (Agaricus bisporus).
< 4.00

Fill: pIC50 (tyrosinase (Agaricus bisporus)) for this compound COc1cc(C(=O)/C=C/c2ccc(O)cc2)ccc1OC1OC(CO)C(O)C(O)C1O (stereo not shown)
4.96

Report value only: pIC50, tyrosinase (Agaricus bisporus), COc1cccc(/C=C/C(=O)c2cc(OC3OC(CO)C(O)C(O)C3O)cc(OC3OC(CO)C(O)C(O)C3O)c2)c1 (stereo not shown) [17b]
< 4.00

GET pIC50 | system: tyrosinase (Agaricus bisporus) | item: COc1ccc(/C=C/C(=O)c2cc(O)cc(O[C@@H]3O[C@H](CO)[C@@H](O)[C@H](O)[C@H]3O)c2)cc1 [16c]
< 4.00

====

Please respond with reported IC50 for every item in the list.
- TESTED TARGET: tyrosinase (Agaricus bisporus)

Identify IC50 associated with the compound COc1cc(C(=O)/C=C/c2ccccc2O)ccc1O[C@@H]1O[C@H](CO)[C@@H](O)[C@H](O)[C@H]1O
> 100 µM

Give me measured IC50, please, for this compound: COc1ccccc1/C=C/C(=O)c1cc(OC2OC(CO)C(O)C(O)C2O)cc(OC2OC(CO)C(O)C(O)C2O)c1 (stereo not drawn) [17a]
> 100 µM

Report measured IC50; entry is COc1cc(C(=O)/C=C/c2cccc(OC3OC(CO)C(O)C(O)C3O)c2)ccc1OC1OC(CO)C(O)C(O)C1O (stereo not drawn)
> 100 µM
